Reported activation at 10 µM values are given for each entry in this list.
target: CFTR (Homo sapiens, UniProt P13569, DEL508-508); construct: endogenous in cells; host or cells: primary human bronchial epithelial cells from CF subjects (F508del/MF-HBE), differentiated at air-liquid interface; assay: HBE assay: Ussing chamber assay of CFTR-mediated short-circuit currents; type: cell-based; details: Table 11; at 10 μM; read-out: HBE Activity at 10 μM (%)
Sequence (P13569 with tags, fused parts or gaps DEL508-508): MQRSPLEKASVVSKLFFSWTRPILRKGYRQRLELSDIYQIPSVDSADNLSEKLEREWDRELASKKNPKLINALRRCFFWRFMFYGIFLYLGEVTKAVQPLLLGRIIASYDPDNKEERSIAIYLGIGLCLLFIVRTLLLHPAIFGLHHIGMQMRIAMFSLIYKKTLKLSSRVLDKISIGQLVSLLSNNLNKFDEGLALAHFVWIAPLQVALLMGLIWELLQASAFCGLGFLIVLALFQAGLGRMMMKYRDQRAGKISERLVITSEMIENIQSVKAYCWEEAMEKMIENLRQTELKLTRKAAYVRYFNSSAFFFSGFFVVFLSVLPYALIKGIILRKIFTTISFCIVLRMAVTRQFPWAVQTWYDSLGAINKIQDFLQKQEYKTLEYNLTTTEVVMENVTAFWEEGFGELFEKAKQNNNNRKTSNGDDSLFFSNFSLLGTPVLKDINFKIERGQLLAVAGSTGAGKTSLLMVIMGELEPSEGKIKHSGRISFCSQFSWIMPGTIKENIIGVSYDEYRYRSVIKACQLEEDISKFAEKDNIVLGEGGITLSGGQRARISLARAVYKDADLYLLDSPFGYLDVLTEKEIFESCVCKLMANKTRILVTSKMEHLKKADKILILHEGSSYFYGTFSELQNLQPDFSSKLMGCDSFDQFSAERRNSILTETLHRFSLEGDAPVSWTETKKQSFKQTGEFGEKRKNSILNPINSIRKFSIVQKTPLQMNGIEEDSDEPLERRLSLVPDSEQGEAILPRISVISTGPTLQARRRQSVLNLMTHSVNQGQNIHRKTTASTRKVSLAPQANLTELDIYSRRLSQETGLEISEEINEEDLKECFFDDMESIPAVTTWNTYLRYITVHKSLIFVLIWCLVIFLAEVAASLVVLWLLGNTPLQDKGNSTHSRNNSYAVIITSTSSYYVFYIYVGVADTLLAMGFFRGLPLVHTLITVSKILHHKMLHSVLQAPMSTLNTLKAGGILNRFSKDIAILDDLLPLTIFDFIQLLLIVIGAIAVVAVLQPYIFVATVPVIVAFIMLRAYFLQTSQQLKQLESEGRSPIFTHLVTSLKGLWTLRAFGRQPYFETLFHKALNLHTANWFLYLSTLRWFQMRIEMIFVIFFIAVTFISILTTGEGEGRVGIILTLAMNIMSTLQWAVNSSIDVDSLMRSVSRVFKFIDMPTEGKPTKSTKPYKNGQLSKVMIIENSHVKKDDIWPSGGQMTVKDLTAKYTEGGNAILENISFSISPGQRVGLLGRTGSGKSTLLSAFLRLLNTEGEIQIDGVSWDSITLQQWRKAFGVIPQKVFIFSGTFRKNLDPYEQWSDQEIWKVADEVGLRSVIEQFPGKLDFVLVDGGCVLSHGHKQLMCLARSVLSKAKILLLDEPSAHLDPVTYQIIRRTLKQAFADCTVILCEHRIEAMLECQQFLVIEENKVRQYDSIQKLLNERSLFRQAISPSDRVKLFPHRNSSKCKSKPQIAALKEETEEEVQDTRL

Some compounds with recorded activation at 10 µM:
>  <compound>
Cc1cccc(O)c1-c1cc2nc(n1)NS(=O)(=O)c1cccc(c1)C(=O)N(Cc1ccc(N3CCOCC3)cn1)[C@H](CC(C)(C)C)CO2

>  <parameter-measured>
activation at 10 µM

>  <observed>
30 to 60%

$$$$
>  <compound>
Cc1cccc(C)c1-c1cc2nc(n1)NS(=O)(=O)c1cccc(c1)C(=O)N(CCc1cccc(N3CCOCC3)n1)[C@H](CC(C)(C)C)CO2

>  <parameter-measured>
activation at 10 µM

>  <observed>
> 60%

$$$$
>  <compound>
Cc1cccc(C)c1-c1cc2nc(n1)NS(=O)(=O)c1cccc(c1)C(=O)N(CC1OCCC1(C)C)[C@H](CC(C)(C)C)CO2 (single isomer, unassigned)

>  <parameter-measured>
activation at 10 µM

>  <observed>
> 60%

$$$$
>  <compound>
Cc1cccc(C)c1-c1cc2nc(n1)NS(=O)(=O)c1cccc(c1)C(=O)N(Cc1ncc(N3CCCCC3)cn1)[C@H](CC(C)(C)C)CO2

>  <parameter-measured>
activation at 10 µM

>  <observed>
> 60%

$$$$

[in] Item: Cc1cccc(C)c1-c1cc2nc(n1)NS(=O)(=O)c1cccc(c1)C(=O)N(Cc1ncc(NCC(C)(C)C)cn1)[C@H](CC(C)(C)C)CO2 Test system: CFTR (Homo sapiens, UniProt P13569, DEL508-508) Read-out: activation at 10 µM Value: ?
[out] > 60%

[in] Look up activation at 10 µM with CFTR (Homo sapiens, UniProt P13569, DEL508-508) for this compound: Cc1cccc(C)c1-c1cc2nc(n1)NS(=O)(=O)c1cccc(c1)C(=O)N(CC1CCCC(C)(C)O1)[C@H](CC(C)(C)C)CO2 (single isomer, unassigned)
[out] > 60%

[in] What reported activation at 10 µM corresponds to Cc1cccc(C)c1-c1cc2nc(n1)NS(=O)(=O)c1cccc(c1)C(=O)N(CC1CCOC1)[C@H](CC(C)(C)C)CO2 (stereo partly shown) on CFTR (Homo sapiens, UniProt P13569, DEL508-508)?
[out] > 60%

----------
biological target: CFTR (Homo sapiens, UniProt P13569, DEL508-508); construct: endogenous in cells; host or cells: primary human bronchial epithelial cells from CF subjects (F508del/MF-HBE), differentiated at air-liquid interface; assay: HBE2 assay: Ussing chamber assay of CFTR-mediated short-circuit currents; type: cell-based; settings: 3 μM corrector; F508del/MF-HBE cells; with 44 nM potentiator, 18-24 hours, 20% human serum
parameter-measured: HBE2 Activity at 3 μM (%)

>  <compound>
COC[C@H]1CCCCN1c1cncc(CN2C(=O)c3cccc(c3)S(=O)(=O)Nc3nc(cc(-c4c(C)cccc4C)n3)OC[C@H]2CCC(C)(C)C)n1 (stereo in doubt) [Compound 1856]

>  <system>
CFTR (Homo sapiens, UniProt P13569, DEL508-508)

>  <observed>
+++ (+++ is >60+)

$$$$
>  <compound>
Cc1cccc(C)c1-c1cc2nc(n1)NS(=O)(=O)c1cccc(c1)C(=O)N(Cc1cncc(N(C)CC3(C)CC3)n1)[C@H](CC(C)(C)C)CO2

>  <system>
CFTR (Homo sapiens, UniProt P13569, DEL508-508)

>  <observed>
+++ (+++ is >60+)

$$$$
>  <compound>
Cc1cccc(C)c1-c1cc2nc(n1)NS(=O)(=O)c1cccc(c1)C(=O)N(Cc1cnc3cc(C(C)C)n(C)c3n1)[C@H](CC1(C)CC1)CO2

>  <system>
CFTR (Homo sapiens, UniProt P13569, DEL508-508)

>  <observed>
+++ (+++ is >60+)

$$$$

----------
molecular target: CFTR (Homo sapiens, UniProt P13569, DEL508-508); construct: endogenous in cells; host or cells: primary human bronchial epithelial cells from CF subjects (F508del/MF-HBE), differentiated at air-liquid interface; experiment: HBE assay: Ussing chamber assay of CFTR-mediated short-circuit currents; format: cell-based; settings: HBE assay; read-out: HBE EC50
pEC50: −log10 of the molar value.
Some molecules, each annotated with its measured pEC50.

>  <molecule>
Cc1cccc(C)c1-c1cc2nc(n1)NS(=O)(=O)c1cccc(c1)C(=O)N(Cc1nc(N(C)C3CC4(CC4)C3)ccc1F)[C@H](CC(C)(C)C)CO2

>  <pEC50>
> 6.00

$$$$
>  <molecule>
Cc1cccc(C)c1-c1cc2nc(n1)NS(=O)(=O)c1cccc(c1)C(=O)N(Cc1ncc(N3CCC(C)(C)C3)cn1)[C@H](CC1CC1)CO2

>  <pEC50>
> 6.00

$$$$
>  <molecule>
CCOc1cnc(CN2C(=O)c3cccc(c3)S(=O)(=O)Nc3nc(cc(-c4c(C)cccc4C)n3)OC[C@H]2CC(C)(C)C(F)(F)F)nc1

>  <pEC50>
> 6.00

$$$$

[in] Lab note: need pEC50 for Cc1cccc(C)c1-c1cc2nc(n1)NS(=O)(=O)c1cccc(c1)C(=O)N(Cc1cncc(NC3CCOC3)n1)[C@H](CC(C)(C)C)CO2 (stereo partly drawn) on CFTR (Homo sapiens, UniProt P13569, DEL508-508), anyone have it?
[out] > 6.00

[in] # value lookup — system CFTR (Homo sapiens, UniProt P13569, DEL508-508), readout pEC50, item COCCN(c1cncc(CN2C(=O)c3cccc(c3)S(=O)(=O)Nc3nc(cc(-c4c(C)cccc4C)n3)OC[C@H]2CC(C)(C)C)n1)C1CCC1
[out] > 6.00

[in] Fill in the recorded pEC50 for this molecule, with CFTR (Homo sapiens, UniProt P13569, DEL508-508) as test system: CC[C@@H]1CCCN1c1cncc(CN2C(=O)c3cccc(c3)S(=O)(=O)Nc3nc(cc(-c4c(C)cccc4C)n3)OC[C@H]2CC(C)(C)C)n1
[out] > 6.00

[in] State its pEC50 on CFTR (Homo sapiens, UniProt P13569, DEL508-508): Cc1cccc(C)c1-c1cc2nc(n1)NS(=O)(=O)c1cccc(c1)C(=O)N(Cc1cncc(N3CCCC3C)n1)[C@H](CC(C)(C)C)CO2 (stereo in doubt)
[out] > 6.00

[in] Hi! What's the reported pEC50 for COCCN(C)c1cnc(CN2C(=O)c3cccc(c3)S(=O)(=O)Nc3nc(cc(-c4c(C)cccc4C)n3)OC[C@H]2CC(C)(C)C)c(C)c1 on CFTR (Homo sapiens, UniProt P13569, DEL508-508)?
[out] > 6.00

[in] Query pEC50 on CFTR (Homo sapiens, UniProt P13569, DEL508-508) for Cc1cccc(C)c1-c1cc2nc(n1)NS(=O)(=O)c1cccc(c1)C(=O)N(Cc1coc(N3CCOCC3)n1)[C@H](CC(C)(C)C)CO2
[out] > 6.00

[in] Identify the measured pEC50 of Cc1cccc(C)c1-c1cc2nc(n1)NS(=O)(=O)c1cccc(c1)C(=O)N(Cc1ncc(OC3CC4(CC4)C3)cn1)[C@H](CC1CC1)CO2 for CFTR (Homo sapiens, UniProt P13569, DEL508-508).
[out] > 6.00

[in] Item: CCC(C)Oc1cnc(CN2C(=O)c3cccc(c3)S(=O)(=O)Nc3nc(cc(-c4c(C)cccc4C)n3)OC[C@H]2CC(C)(C)C)nc1 (stereo partly drawn) [Compound 1345] Test system: CFTR (Homo sapiens, UniProt P13569, DEL508-508) Read-out: pEC50 Value: ?
[out] > 6.00

[in] For the record CC[C@H](C)[C@@H]1COc2cc(-c3c(C)cccc3C)nc(n2)NS(=O)(=O)c2cccc(c2)C(=O)N1Cc1ncc(OC(C)C)cn1 , what value of pEC50 is listed for CFTR (Homo sapiens, UniProt P13569, DEL508-508)?
[out] > 6.00

----------
target: CFTR (Homo sapiens, UniProt P13569, DEL508-508); construct: endogenous in cells; host or cells: primary human bronchial epithelial cells from CF subjects (F508del/MF-HBE), differentiated at air-liquid interface; test: HBE assay: Ussing chamber assay of CFTR-mediated short-circuit currents; assay type: cell-based; settings: HBE assay; read-out: HBE EC50
// EC50 lookup, one value per entry

>  <compound>
COC[C@H]1CCN(c2cnc(CN3C(=O)c4cccc(c4)S(=O)(=O)Nc4nc(cc(-c5c(C)cccc5C)n4)OC[C@H]3CC(C)(C)C)nc2)C1 [Compound 1439]

>  <EC50>
< 1 µM

$$$$

[in] Which EC50 value belongs to Cc1cccc(C)c1-c1cc2nc(n1)NS(=O)(=O)c1cccc(c1)C(=O)N(Cc1ncc(OC(C)C)cn1)[C@H](CCC(C)(C)C)CO2 [Compound 1296] ?
[out] < 1 µM

[in] Report EC50 for Cc1cccc(C)c1-c1cc2nc(n1)NS(=O)(=O)c1cccc(c1)C(=O)N(Cc1ncc(N3CC(C)(F)C3)cn1)[C@H](CC(C)(C)C)CO2 [Compound 1503] please.
[out] < 1 µM
